Listing of entries alongside the reported cell viability.
- Tested on: P12-Ichikawa
- Assay summary: cell viability relative to DMSO control; higher = less cytotoxic
- Measurement parameters: RPMI 5 mM glucose + 10% dialyzed FBS; 48 h; 0.569 µM
Report the figure in % without appending any unit label.

See these solved cases before continuing.
Compound	Target system	cell viability [%]
COC[C@H]1OC(=O)C2=COC3=C2[C@@]1(C)\C4=C(C5CCC(=O)[C@@]5(C)C[C@H]4OC(C)=O)/C3=O (stereo not given in full)	P12-Ichikawa	95.1
O=NN(CCCl)C(=O)NCCCl	P12-Ichikawa	94.6
CN\1C(=O)/C(=C(\N=C1N2CCCC[S+]2([O-])=O)C(=O)NCC3=CC=C(F)C=C3)O	P12-Ichikawa	123
C[C@H]1[C@H](NC(=O)/C(=N/OC(C)(C)C(=O)O)c2csc(N)n2)C(=O)N1[S+](=O)([O-])O	P12-Ichikawa	101

[ask] Form field: cell viability recorded for `CC(C)(C)C(=O)Oc1ccc2c(c1)nc(NC(=O)c1cccc([N+](=O)[O-])c1)n2CCCO` with P12-Ichikawa (enter value)
[reply] 115

Hey, just so you know, these numbers are from the supplement of paper PMC11451515.
